- Measurement Protocol: Cellular viability qHTS for adrenocortical cancer (ACC) cell line SW-13 (AID 1963989);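 note: cells grown in serum-free medium with ITS supplement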
- Condition Label: SW-13 ACC cells viability, CellTiter-Glo, 48 h; stronger effect = lower value
Inconclusive results are not listed.
So basically, if activity (max response) comes in under -10% it's Yes, and if it's -10% or more it's No.

Below are worked cases with known answers.
1. COc1ccc2nc(NC(=O)Nc3ccccc3)sc2c1 = Yes
2. CC(=O)N/N=C/c1ccc([N+](=O)[O-])o1 = No
3. CN1CCCN=C1COC(=O)C(O)(c1ccccc1)C1CCCCC1 (stereo unspecified) = No

Query block: I'd appreciate it if you could check whether Cc1cc(C(C)Nc2ccccc2)c2nc(N3CCOCC3)cc(=O)n2c1 (stereo unspecified) has activity (max response) smaller than -10%.
Result block: Yes

Query block: I'd appreciate it if you could check whether C=C1C(=O)OC2/C=C(/C)CC/C=C(/C)CCC12 (stereo unspecified) has activity (max response) smaller than -10%.
Result block: No

Query block: I'd appreciate it if you could check whether CC(C)(C)NC(=O)c1cncn1C1CCN(c2ccc(-c3nnc(C(F)(F)F)o3)cn2)CC1 has activity (max response) smaller than -10%.
Result block: Yes
